Tested on: Avena fatua (AVEFA)
Assay: Test Example 1 post-emergence herbicidal activity
Format: in vivo
Settings: 360 h, rate 125 g/ha, evaluated 15 days later, read-out: Post-emergence activity AVEFA (100=total damage to plant; 0=no damage to plant)
Mark T for pest or weed control at 125 g/ha under 80%, F if at or over.

Q: # check: pest or weed control at 125 g/ha < 80% for C=C[C@@H]1C[C@@H]2O[C@H]1[C@H]1C(O)=C(c3c(C)cc(C)cc3C)C(=O)[C@H]12 (racemic)
A: T

Q: # check: pest or weed control at 125 g/ha < 80% for Cc1cc(C)c(C2=C(OC(=O)OC(C)C)[C@H]3[C@@H](C2=O)[C@@H]2CC[C@H]3O2)c(C)c1 (racemic)
A: F

Q: # check: pest or weed control at 125 g/ha < 80% for Cc1cc(C)c(C2=C(O)[C@@H]3[C@@H]4O[C@@H](C[C@@H]4C)[C@@H]3C2=O)c(C)c1
A: F

Q: # check: pest or weed control at 125 g/ha < 80% for CC[C@]12C=C[C@H](O1)[C@@H]1C(=O)C(c3c(C)cc(C)cc3C)=C(O)[C@@H]12
A: T

Q: # check: pest or weed control at 125 g/ha < 80% for CCc1cc(C)cc(CC)c1C1=C(O)[C@@H]2[C@@H]3O[C@@H](C[C@H]3c3cccc(F)c3C#N)[C@@H]2C1=O
A: T

Q: # check: pest or weed control at 125 g/ha < 80% for CCc1cc(C)cc(CC)c1C1=C(O)[C@@H]2[C@@H]3O[C@@H](C[C@H]3c3ccc(C#N)cc3)[C@@H]2C1=O
A: F

Q: # check: pest or weed control at 125 g/ha < 80% for CCc1cc(C)cc(CC)c1C1=C(O)[C@@H]2[C@@H]3O[C@@H](C[C@H]3c3ccc(Cl)c(Cl)c3)[C@@H]2C1=O
A: T

Q: # check: pest or weed control at 125 g/ha < 80% for Cc1cc(C)c(C2=C(O)[C@@H]3[C@@H]4O[C@@H](C[C@H]4c4ccc(F)cc4)[C@@H]3C2=O)c(C)c1 (racemic)
A: T

Q: # check: pest or weed control at 125 g/ha < 80% for CCOC[C@]12CC[C@H](O1)[C@@H]1C(=O)C(c3c(CC)cc(C)cc3CC)=C(O)[C@@H]12
A: F

Q: # check: pest or weed control at 125 g/ha < 80% for Cc1cc(C)c(C2=C(O)[C@@H]3[C@@H]4O[C@@H](C[C@H]4C)[C@@H]3C2=O)c(C)c1
A: F

Q: # check: pest or weed control at 125 g/ha < 80% for C#CCOC(=O)OC1=C(c2c(C)cc(C)cc2C)C(=O)[C@@H]2[C@H]1[C@@]1(C)CC[C@]2(C)O1 (racemic)
A: T

Q: # check: pest or weed control at 125 g/ha < 80% for CCc1cc(C)cc(CC)c1C1=C(O)[C@@H]2[C@@H]3O[C@@H](C[C@H]3c3ccc(C(C)=O)cc3)[C@@H]2C1=O
A: T

----------
Tested on: Avena fatua (AVEFA)
Assay: Test Example 1 post-emergence herbicidal activity
Format: in vivo
Settings: 360 h, rate 125 g/ha, evaluated 15 days later, read-out: Post-emergence activity AVEFA (100=total damage to plant; 0=no damage to plant)
Would you mind telling me the reported pest or weed control at 125 g/ha of each entry?
Give just the number in %; leave the unit off.

Q: Please report the measured pest or weed control at 125 g/ha for Cc1cc(C)c(C2=C(O)[C@@H]3[C@@H]4O[C@@H](C[C@H]4/C=C/c4ccccc4)[C@@H]3C2=O)c(C)c1 [Example T98]
A: 20

Q: Please report the measured pest or weed control at 125 g/ha for Cc1cc(C)c(C2=C(O)[C@@H]3[C@@H]4O[C@@H](C[C@H]4c4ncc(C(F)(F)F)cc4C(F)(F)F)[C@@H]3C2=O)c(C)c1 [Example T203]
A: 10

Q: Please report the measured pest or weed control at 125 g/ha for CCCNC(=O)OC[C@]12CC[C@H](O1)[C@@H]1C(=O)C(c3c(CC)cc(C)cc3CC)=C(O)[C@@H]12 [Example T21]
A: 70

Q: Please report the measured pest or weed control at 125 g/ha for Cc1cc(C)c(C2=C(O)[C@@H]3[C@@H]4O[C@@H](C[C@H]4c4cc(C(F)(F)F)nc(C(F)(F)F)c4)[C@@H]3C2=O)c(C)c1 (racemic) [Example T199]
A: 100

Q: Please report the measured pest or weed control at 125 g/ha for CCc1cc(C)cc(CC)c1C1=C(O)[C@@H]2[C@@H]3O[C@@H](C[C@H]3c3cccc(C)c3)[C@@H]2C1=O [Example T179]
A: 80

Q: Please report the measured pest or weed control at 125 g/ha for Cc1cc(C)c(C2=C(O)[C@@H]3[C@@H]4O[C@@H](C[C@H]4c4ccc(C(F)(F)F)nc4)[C@@H]3C2=O)c(C)c1 (racemic) [Example T128]
A: 90

Q: Please report the measured pest or weed control at 125 g/ha for CCc1cc(C)cc(CC)c1C1=C(OC(=O)CCCCCCC(=O)OC)[C@H]2[C@@H](C1=O)[C@@H]1CC[C@H]2O1 [Example P16]
A: 90

Q: Please report the measured pest or weed control at 125 g/ha for CCOC(=O)OC1=C(c2c(CC)cc(C)cc2CC)C(=O)[C@@H]2[C@H]1[C@H]1CC[C@@H]2O1 (racemic) [Example P18]
A: 50

Q: Please report the measured pest or weed control at 125 g/ha for COc1cc(C)c(C2=C(O)[C@H]3[C@@H](C2=O)[C@@H]2CC[C@H]3O2)c(C)c1 [Example T208]
A: 70

Q: Please report the measured pest or weed control at 125 g/ha for CCc1cc(C)cc(CC)c1C1=C(OC(=O)C(C)(C)C)[C@H]2[C@@H](C1=O)[C@@H]1CC[C@H]2O1 (racemic) [Example P14]
A: 90

Q: Please report the measured pest or weed control at 125 g/ha for Cc1cc(C)c(C2=C(O)[C@@H]3[C@@H]4O[C@@H](C[C@H]4c4ccc(C(F)(F)F)cn4)[C@@H]3C2=O)c(C)c1 (racemic) [Example T200]
A: 80

Q: Please report the measured pest or weed control at 125 g/ha for CC[C@H]1C[C@@H]2O[C@H]1[C@H]1C(O)=C(c3c(C)cc(C)cc3C)C(=O)[C@H]12 [Example T107]
A: 90

Q: Please report the measured pest or weed control at 125 g/ha for Cc1cc(C)c(C2=C(O)[C@H]3[C@@H](C2=O)[C@@H]2C=C[C@@]3(CSC(C)C)O2)c(C)c1 (racemic) [Example T43]
A: 0
